microsomal CLint at 1 µM overview
test: Microsomal metabolic stability assay; type: in vitro ADME; details: human, liver microsomes, pH 7.4; 0.5 mg/mL microsomal protein, 1 µM test article, 2 mM NADPH; read-out: Human LM Clint
Quick note: give the figure in µL/min/mg, leave out the unit.

// known answers, use as guide
| compound | metric | unit_of_measurement | quantitative_readout |
| --- | --- | --- | --- |
| [2H]C([2H])([2H])NC(=O)c1cnc(NC(=O)[C@@H]2C[C@@H]2F)cc1Nc1cnn2ccc(C(O)C(F)(F)F)c(OC)c12 (single isomer, unassigned) [Example 15A] | microsomal CLint at 1 µM | µL/min/mg | 11.9 |
| [2H]C([2H])([2H])NC(=O)c1cnc(NC(=O)C2CC2)cc1Nc1cnn2ccc(C(C)O)c(OC)c12 (stereo not drawn) [Example 23] | microsomal CLint at 1 µM | µL/min/mg | 0.17 |
| [2H]C([2H])([2H])NC(=O)c1nnc(NC(=O)C2CC2)cc1Nc1nn(C)c2ccc([C@H](OC)C(F)(F)F)c(OC)c12 [Example 51B] | microsomal CLint at 1 µM | µL/min/mg | 8.06 |
| [2H]C([2H])([2H])OC(c1ccc2c(c(Nc3cc(NC(=O)C4CC4)ncc3C(=O)OC)nn2CCOC)c1OC)C(F)(F)F (stereo not drawn) [Example 157] | microsomal CLint at 1 µM | µL/min/mg | 25.8 |
| CCn1nc(Nc2cc(NC(=O)C3CC3)ncc2C(=O)OC)c2c(OC)c(C(OC)C(F)(F)F)ccc21 (single isomer, unassigned) [Example 66B] | microsomal CLint at 1 µM | µL/min/mg | 14.2 |

Q) Field request: microsomal CLint at 1 µM | item: [2H]C([2H])([2H])NC(=O)c1cnc(NC(=O)[C@@H]2C[C@@H]2F)cc1Nc1cnn2cnc(C(C)C(F)(F)F)c(OC)c12 (stereo partly drawn) [Example 38]
A) 7.34
